test system: SK-MEL-5 melanoma; experiment: NCI-60 one-dose screen, 48 h; details: 10 µM unless noted
This is part of a sample that, as a whole, favours compounds with a hit. Of some 83,000 tested, about 20% had one in any assay. Calls of active or inactive are those of the source. The calls were made as follows: active = growth percent below 10; inactive = the rest.
Outcomes: True for active, False for inactive

>>> class_assignment("COc1ccc(-c2cc(-c3ccccc3)nc(SCCCCCC(=O)NO)n2)cc1")
"False"
>>> class_assignment("COc1ccc(C(C(=O)O)c2ccc(OC)cc2)cc1")
"False"
>>> class_assignment("CC1(C)CC[C@]2(C(=O)O)CC[C@]3(C)C(=CC[C@@H]4[C@@]5(C)C/C(=C/c6ccco6)C(=O)C(C)(C)[C@@H]5CC[C@]43C)[C@@H]2C1")
"True"
>>> class_assignment("C[C@H]1[C@H](C)CC[C@]2(COC(=O)CCC(=O)O)CC[C@]3(C)C(=CC[C@@H]4[C@@]5(C)CCCNC(C)(C)[C@@H]5CC[C@]43C)[C@H]12")
"False"

Origin of measurements: PubChem BioAssay (NCI)
